- study-target: α1 subtype containing GABA-A receptors (Homo sapiens, UniProt P14867+P18507)
- Construct: expressed in transfected cells; host or cells: Xenopus laevis oocytes, cRNA injected
- Sequence (P14867 28-456): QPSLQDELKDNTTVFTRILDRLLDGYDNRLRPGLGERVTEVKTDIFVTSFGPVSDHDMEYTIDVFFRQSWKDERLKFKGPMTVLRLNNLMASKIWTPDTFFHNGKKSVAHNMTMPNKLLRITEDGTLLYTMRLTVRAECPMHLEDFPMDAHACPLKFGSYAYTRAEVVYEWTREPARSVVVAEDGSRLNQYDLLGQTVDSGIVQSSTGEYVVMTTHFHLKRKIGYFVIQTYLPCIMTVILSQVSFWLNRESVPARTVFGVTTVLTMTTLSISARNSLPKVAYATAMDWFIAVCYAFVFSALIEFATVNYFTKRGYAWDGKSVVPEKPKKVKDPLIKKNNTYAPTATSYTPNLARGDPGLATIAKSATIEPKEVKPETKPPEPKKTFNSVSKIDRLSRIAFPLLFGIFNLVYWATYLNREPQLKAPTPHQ
- Sequence (P28472 26-473 partner): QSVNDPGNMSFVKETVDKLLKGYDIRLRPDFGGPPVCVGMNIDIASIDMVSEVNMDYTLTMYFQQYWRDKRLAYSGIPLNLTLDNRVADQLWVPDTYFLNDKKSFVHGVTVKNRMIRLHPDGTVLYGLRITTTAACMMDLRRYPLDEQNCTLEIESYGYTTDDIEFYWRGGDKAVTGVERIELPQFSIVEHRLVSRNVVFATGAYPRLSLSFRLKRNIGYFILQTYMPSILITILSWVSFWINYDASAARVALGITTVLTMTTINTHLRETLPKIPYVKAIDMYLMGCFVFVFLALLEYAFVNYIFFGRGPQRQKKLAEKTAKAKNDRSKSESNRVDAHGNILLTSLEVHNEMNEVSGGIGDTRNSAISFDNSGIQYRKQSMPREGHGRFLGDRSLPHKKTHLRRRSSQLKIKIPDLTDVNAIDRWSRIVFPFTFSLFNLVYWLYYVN
- Sequence (P18507 40-475): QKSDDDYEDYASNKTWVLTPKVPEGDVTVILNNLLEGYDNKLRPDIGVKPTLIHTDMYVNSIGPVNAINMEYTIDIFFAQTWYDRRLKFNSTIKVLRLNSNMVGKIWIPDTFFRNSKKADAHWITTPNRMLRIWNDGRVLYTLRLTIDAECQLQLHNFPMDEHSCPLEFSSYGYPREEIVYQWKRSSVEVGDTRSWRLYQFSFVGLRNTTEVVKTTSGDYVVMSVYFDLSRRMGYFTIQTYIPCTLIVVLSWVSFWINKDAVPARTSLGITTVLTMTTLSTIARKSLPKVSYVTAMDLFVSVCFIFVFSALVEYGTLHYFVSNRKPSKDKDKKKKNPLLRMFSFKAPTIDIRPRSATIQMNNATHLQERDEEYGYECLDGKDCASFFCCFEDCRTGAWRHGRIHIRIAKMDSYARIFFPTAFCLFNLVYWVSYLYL
- method-summary: Two-electrode voltage clamp electrophysiology in Xenopus oocytes, potentiation of GABA EC20 response, α1
- Assay type: cell-based
- assay-conditions: 100 nM compound, read-out: Percentage of potentiation alpha1
measurement-kind: activation at 0.1 µM

Please review the following examples before continuing.
*Q* Look up activation at 0.1 µM for this compound: OC1CCN(c2ccnc(NCc3c(-c4ccc(F)cc4)nc4ccc(Cl)cn34)n2)C1 (centres unmarked) [Compound 189]
*A* ≥ 50%

*Q* Look up activation at 0.1 µM for this compound: CCNCc1ccnc(NCc2c(-c3ccc(F)cc3)nc3ccc(C)cn23)n1 [Compound 196]
*A* ≥ 50%

*Q* Look up activation at 0.1 µM for this compound: Cc1nn(C)nc1Cc1c(-c2ccc(Cl)cc2)nc2ccc(Cl)cn12 [Compound 229]
*A* 10 to 50%

*Q* Look up activation at 0.1 µM for this compound: COC(=O)c1ncnn1Cc1c(-c2ccccc2)nc2ccc(Cl)cn12 [Compound 44]
*A* -10 to 10%

// next entry
*Q* Look up activation at 0.1 µM for this compound: Cc1ccnc(NCc2c(-c3ccc(Cl)cc3)nc3ccccn23)n1 [Compound 157]
*A* 10 to 50%
